methodSummary: Fluorescence spectrum (excitation and fluorescence maxima)
Format: physicochemical
valueType: maximum excitation wavelength (Ex max) (nm)
Report as a plain number; the unit nm is understood.

{"columns": ["compound", "valueType", "numericResult"],
 "data": [
  ["O=c1oc2cc(NC3C(O)OC(CO)[C@@H](O)[C@@H]3O)ccc2cc1C(F)(F)F (some centres unmarked) [Compound 3-TFMCDG]", "maximum excitation wavelength (Ex max)", 381.0],
  ["O=c1cc(C(F)(F)F)c2ccc(NC3C(O)OC(CO)[C@@H](O)C3O)cc2o1 (some centres unmarked) [Compound 4-TFMCDG]", "maximum excitation wavelength (Ex max)", 380.0],
  ["O=c1ccc2ccc(NC3C(O)OC(CO)[C@@H](O)[C@@H]3O)cc2[nH]1 (some centres unmarked) [QDG]", "maximum excitation wavelength (Ex max)", 353.5],
  ["Cc1cc2ccc(NC3C(O)OC(CO)[C@@H](O)[C@@H]3O)cc2oc1=O (some centres unmarked) [Compound 3-MCDG]", "maximum excitation wavelength (Ex max)", 361.0],
  ["Cc1cc(=O)oc2cc(NC3C(O)OC(CO)[C@@H](O)[C@@H]3O)ccc12 (some centres unmarked) [Compound 4-MCDG]", "maximum excitation wavelength (Ex max)", 362.0],
  ["O=c1ccc2ccc(NC3C(O)OC(CO)[C@H](O)[C@H]3O)cc2o1 (some centres unmarked) [CLG]", "maximum excitation wavelength (Ex max)", 366.5],
  ["O=c1ccc2ccc(NC3C(O)OC(CO)[C@H](O)[C@H]3O)cc2[nH]1 (some centres unmarked) [QLG]", "maximum excitation wavelength (Ex max)", 353.5]
]}

Report maximum excitation wavelength (Ex max) for O=c1ccc2ccc(NC3C(O)OC(CO)[C@@H](O)[C@@H]3O)cc2o1 (some centres unmarked) [CDG] please.
366.5
